protocol-details: activity coefficient (dimensionless); of the first substance listed, at infinite dilution; xn = mol fraction of the nth substance listed
recorded-conditions: 328.15 K; Liquid; Chromatography; x1 = 0
# activity coefficient per entry
Lab note: jot down the number only; don't add units.

Kindly note the recorded activity coefficient for C#CCCCCC [1-heptyne] + CCCCn1cc[n+](C)c1.N#C[S-] , which is 10.2

Kindly note the recorded activity coefficient for CCc1ccccc1 [ethylbenzene] + CCCCn1cc[n+](C)c1.N#C[S-] , which is 5.86

Kindly note the recorded activity coefficient for CCCCCO [pentan-1-ol] + CCCCn1cc[n+](C)c1.N#C[S-] , which is 1.54

Kindly note the recorded activity coefficient for C#CCCCCCC [1-octyne] + CCCCn1cc[n+](C)c1.N#C[S-] , which is 15.3

###

# activity coefficient per entry
protocol-details: activity coefficient (dimensionless); of the first substance listed, at infinite dilution; xn = mol fraction of the nth substance listed
recorded-conditions: 318.15 K; Liquid; Chromatography; x1 = 0
Lab note: jot down the number only; don't add units.

C=CCCCC [hex-1-ene] + CCCCn1cc[n+](C)c1.N#C[S-]
50.2
c1ccccc1 [benzene] + CCCCn1cc[n+](C)c1.N#C[S-]
2.17
CCc1ccccc1 [ethylbenzene] + CCCCn1cc[n+](C)c1.N#C[S-]
5.93

Proceeding to the next molecule to report its activity coefficient.
Kindly note the recorded activity coefficient for CCCCCCCCCC [decane] + CCCCn1cc[n+](C)c1.N#C[S-] , which is 533

###

protocol-details: activity coefficient (dimensionless); of the first substance listed, at infinite dilution; xn = mol fraction of the nth substance listed
recorded-conditions: 368.15 K; Liquid; Chromatography; x1 = 0
Decide using activity coefficient alone. Strictly below 4: y. Equal to or above 4: n.

Cc1cccc(C)c1 [1,3-dimethylbenzene] + CCCCn1cc[n+](C)c1.N#C[S-]
n
CCCCCO [pentan-1-ol] + CCCCn1cc[n+](C)c1.N#C[S-]
y
CO [methanol] + CCCCn1cc[n+](C)c1.N#C[S-]
y
c1ccccc1 [benzene] + CCCCn1cc[n+](C)c1.N#C[S-]
y
c1ccsc1 [thiophene] + CCCCn1cc[n+](C)c1.N#C[S-]
y
Cc1ccccc1C [1,2-dimethylbenzene] + CCCCn1cc[n+](C)c1.N#C[S-]
n

activity coefficient strictly < 4 for this compound? CCCCO [butan-1-ol] + CCCCn1cc[n+](C)c1.N#C[S-]
y

###

protocol-details: activity coefficient (dimensionless); of the first substance listed, at infinite dilution; xn = mol fraction of the nth substance listed
recorded-conditions: 308.15 K; Liquid; Chromatography; x1 = 0
# activity coefficient per entry
Lab note: jot down the number only; don't add units.

Worked set:
Cc1ccc(C)cc1 [1,4-dimethylbenzene] + CCCCn1cc[n+](C)c1.N#C[S-]
5.54
CCCCCCCCC [nonane] + CCCCn1cc[n+](C)c1.N#C[S-]
414
Cc1ccccc1C [1,2-dimethylbenzene] + CCCCn1cc[n+](C)c1.N#C[S-]
4.64
C=CCCC [1-pentene] + CCCCn1cc[n+](C)c1.N#C[S-]
46.4

Kindly note the recorded activity coefficient for C#CCCCCC [1-heptyne] + CCCCn1cc[n+](C)c1.N#C[S-] , which is 9.92

Kindly note the recorded activity coefficient for c1ccsc1 [thiophene] + CCCCn1cc[n+](C)c1.N#C[S-] , which is 1.24

Kindly note the recorded activity coefficient for C=CCCCC [hex-1-ene] + CCCCn1cc[n+](C)c1.N#C[S-] , which is 54.8

Kindly note the recorded activity coefficient for Cc1ccccc1 [toluene] + CCCCn1cc[n+](C)c1.N#C[S-] , which is 3.48

###

# activity coefficient per entry
protocol-details: activity coefficient (dimensionless); of the first substance listed, at infinite dilution; xn = mol fraction of the nth substance listed
recorded-conditions: 358.15 K; Liquid; Chromatography; x1 = 0
Lab note: jot down the number only; don't add units.

Worked set:
C=CCCCCCC [oct-1-ene] + CCCCn1cc[n+](C)c1.N#C[S-]
73.8
C1CCCC1 [cyclopentane] + CCCCn1cc[n+](C)c1.N#C[S-]
23.1
C1CCCCC1 [cyclohexane] + CCCCn1cc[n+](C)c1.N#C[S-]
31.1
CCCCCO [pentan-1-ol] + CCCCn1cc[n+](C)c1.N#C[S-]
1.45
CCCCCCCC [octane] + CCCCn1cc[n+](C)c1.N#C[S-]
180
CCCCO [butan-1-ol] + CCCCn1cc[n+](C)c1.N#C[S-]
1.1

Kindly note the recorded activity coefficient for Cc1ccccc1C [1,2-dimethylbenzene] + CCCCn1cc[n+](C)c1.N#C[S-] , which is 4.78

Kindly note the recorded activity coefficient for C=CCCCCC [1-heptene] + CCCCn1cc[n+](C)c1.N#C[S-] , which is 52.4

Kindly note the recorded activity coefficient for COC(C)(C)C [2-methoxy-2-methylpropane] + CCCCn1cc[n+](C)c1.N#C[S-] , which is 10.6

Kindly note the recorded activity coefficient for C#CCCCCC [1-heptyne] + CCCCn1cc[n+](C)c1.N#C[S-] , which is 10.4

Kindly note the recorded activity coefficient for C#CCCCC [1-hexyne] + CCCCn1cc[n+](C)c1.N#C[S-] , which is 6.95

Kindly note the recorded activity coefficient for c1ccsc1 [thiophene] + CCCCn1cc[n+](C)c1.N#C[S-] , which is 1.33

Kindly note the recorded activity coefficient for CCO [ethanol] + CCCCn1cc[n+](C)c1.N#C[S-] , which is 0.631

Kindly note the recorded activity coefficient for CCCCCCC [heptane] + CCCCn1cc[n+](C)c1.N#C[S-] , which is 132

###

protocol-details: activity coefficient (dimensionless); of the first substance listed, at infinite dilution; xn = mol fraction of the nth substance listed
recorded-conditions: 348.15 K; Liquid; Chromatography; x1 = 0
experimental-endpoint: activity coefficient
Lab note: jot down the number only; don't add units.

Worked set:
CCCCCC [hexane] + CCCCn1cc[n+](C)c1.N#C[S-]
108
CCCCCCC [heptane] + CCCCn1cc[n+](C)c1.N#C[S-]
146
Cc1cccc(C)c1 [1,3-dimethylbenzene] + CCCCn1cc[n+](C)c1.N#C[S-]
5.97
C1CCCCCC1 [cycloheptane] + CCCCn1cc[n+](C)c1.N#C[S-]
36.1

Proceeding to the next molecule to report its activity coefficient.
Kindly note the recorded activity coefficient for C1CCCC1 [cyclopentane] + CCCCn1cc[n+](C)c1.N#C[S-] , which is 24.2

###

protocol-details: activity coefficient (dimensionless); of the first substance listed, at infinite dilution; xn = mol fraction of the nth substance listed
recorded-conditions: 348.15 K; Liquid; Chromatography; x1 = 0
Decide using activity coefficient alone. Strictly below 2: Y. Equal to or above 2: N.

For orientation, consider the following solved cases.
c1ccccc1 [benzene] + CCCCn1cc[n+](C)c1.N#C[S-]
N
CCc1ccccc1 [ethylbenzene] + CCCCn1cc[n+](C)c1.N#C[S-]
N
C#CCCCCCC [1-octyne] + CCCCn1cc[n+](C)c1.N#C[S-]
N
CCCCO [butan-1-ol] + CCCCn1cc[n+](C)c1.N#C[S-]
Y

activity coefficient strictly < 2 for this compound? CO [methanol] + CCCCn1cc[n+](C)c1.N#C[S-]
Y

###

protocol-details: activity coefficient (dimensionless); of the first substance listed, at infinite dilution; xn = mol fraction of the nth substance listed
recorded-conditions: 348.15 K; Liquid; Chromatography; x1 = 0
experimental-endpoint: activity coefficient
Lab note: jot down the number only; don't add units.

Kindly note the recorded activity coefficient for C=CCCCC [hex-1-ene] + CCCCn1cc[n+](C)c1.N#C[S-] , which is 38.3

Kindly note the recorded activity coefficient for C=CCCCCCC [oct-1-ene] + CCCCn1cc[n+](C)c1.N#C[S-] , which is 77.6

Kindly note the recorded activity coefficient for O [water] + CCCCn1cc[n+](C)c1.N#C[S-] , which is 0.32

Kindly note the recorded activity coefficient for c1ccsc1 [thiophene] + CCCCn1cc[n+](C)c1.N#C[S-] , which is 1.32

Kindly note the recorded activity coefficient for CCO [ethanol] + CCCCn1cc[n+](C)c1.N#C[S-] , which is 0.643

Kindly note the recorded activity coefficient for C#CCCCCC [1-heptyne] + CCCCn1cc[n+](C)c1.N#C[S-] , which is 10.3

Kindly note the recorded activity coefficient for CCCCCO [pentan-1-ol] + CCCCn1cc[n+](C)c1.N#C[S-] , which is 1.47

Kindly note the recorded activity coefficient for CCCCCCCCCC [decane] + CCCCn1cc[n+](C)c1.N#C[S-] , which is 386

Kindly note the recorded activity coefficient for CCCO [propan-1-ol] + CCCCn1cc[n+](C)c1.N#C[S-] , which is 0.83

Kindly note the recorded activity coefficient for C1CCCCC1 [cyclohexane] + CCCCn1cc[n+](C)c1.N#C[S-] , which is 33.5

Kindly note the recorded activity coefficient for Cc1ccccc1C [1,2-dimethylbenzene] + CCCCn1cc[n+](C)c1.N#C[S-] , which is 4.75

Kindly note the recorded activity coefficient for C#CCCCC [1-hexyne] + CCCCn1cc[n+](C)c1.N#C[S-] , which is 6.87

Kindly note the recorded activity coefficient for C#CCCC [1-pentyne] + CCCCn1cc[n+](C)c1.N#C[S-] , which is 4.85

Kindly note the recorded activity coefficient for C1CCCCCCC1 [cyclooctane] + CCCCn1cc[n+](C)c1.N#C[S-] , which is 45

Kindly note the recorded activity coefficient for COC(C)(C)C [2-methoxy-2-methylpropane] + CCCCn1cc[n+](C)c1.N#C[S-] , which is 10.7
